Tested on: Murine macrophage-like cells RAW 264.7 and murine L929 fibroblasts
Assay: Monocyte/fibroblast co-culture on coated surgical suture material; further: key: 0: not superior to native FA (control); +: Superior to native FA; ++: superior to both; +++: outstanding effect
Assay type: cell-based
Details: dip-coated suture material, 24 and 48 hours; compared with native FA
Description: In order to determine immunoreactions to foreign material and its consequence on fibrogenesis, co-cultures of fibroblasts and monocytes were used. Commercially available suture materials (propylene, polyamide, and silk) were dip-coated with corresponding native and nitrated fatty acids. Untreated suture material served as control. […] Supernatants were collected for assays after 24 and 48 hours and analyzed for profibrotic cytokines IL-13, IL-4, and IL-6, TGF-β1, collagen I.
EXPERIMENTAL_ENDPOINT: Relative effect on profibrotic cytokines and collagen I on suture material

Previously resolved entries follow.
{"COMPOUND": "CC/C=C\\C/C=C\\C/C=C(/CCCCCCCC(=O)O)[N+](=O)[O-]", "MEASURED_TARGET": "Murine macrophage-like cells RAW 264.7 and murine L929 fibroblasts", "RESULT": "+"}
{"COMPOUND": "CCCCCCCC/C=C(/CCCCCCCCCCCCCC(=O)O)[N+](=O)[O-] [compound 8, 15-nitro-cis-15-tetracosenoic acid]", "MEASURED_TARGET": "Murine macrophage-like cells RAW 264.7 and murine L929 fibroblasts", "RESULT": "+"}
{"COMPOUND": "CCCCCCCC/C=C(\\CCCCCCCC(=O)O)[N+](=O)[O-] [compound 9, 9-nitro-trans-oleic acid]", "MEASURED_TARGET": "Murine macrophage-like cells RAW 264.7 and murine L929 fibroblasts", "RESULT": "+"}
{"COMPOUND": "CCCCC/C=C\\C/C(=C\\CCCCCCCC(=O)O)[N+](=O)[O-] [compound 2, 10-nitro-cis-linoleic acid]", "MEASURED_TARGET": "Murine macrophage-like cells RAW 264.7 and murine L929 fibroblasts", "RESULT": "+++"}
{"COMPOUND": "CCCCC=C(C=CC=CCCCCCCCC(=O)O)[N+](=O)[O-]", "MEASURED_TARGET": "Murine macrophage-like cells RAW 264.7 and murine L929 fibroblasts", "RESULT": 0}

Task: Requested field: Relative effect on profibrotic cytokines and collagen I on suture material. Item: CCCCCCCC/C(=C\CCCCCCCC(=O)O)[N+](=O)[O-] [compound 12, 10-nitro-trans-oleic acid]
Result: +

Task: Requested field: Relative effect on profibrotic cytokines and collagen I on suture material. Item: CCCCC/C=C(/C/C=C\C/C=C\C/C=C\C/C=C\CCC(=O)O)[N+](=O)[O-]
Result: +

Task: Requested field: Relative effect on profibrotic cytokines and collagen I on suture material. Item: CCC=CCC=C(CC=CCC=CCC=CCC=C(CCC(=O)O)[N+](=O)[O-])[N+](=O)[O-]
Result: +
